Reference source for all entries: PubChem BioAssay (NCI)

# test-details: NCI Yeast Anticancer Drug Screen. Data for the cln2 rad14 strain (AID 165);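 note: 0% = growth equal to vehicle treated cultures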
# experimental-parameters: S. cerevisiae cln2 rad14 strain, at 50.0 µM, hits give high values
# Experimental: Growth inhibition of yeast strains with defined genetic alterations is measured as a screen for potential anti-cancer activity. Selected strains with alterations in DNA damage repair or cell cycle control were exposed to compounds and growth inhibition was measured relative to vehicle treated controls. The strain used in this assay is cln2 rad14
The panel holds about 79,000 compounds, 15% with a hit somewhere; the sample as a whole holds those more often.
measurement-type: growth inhibition (%)
Give just the numeric value; % need not be written.

Would you please look over these solved cases?
1. Cc1cccc(-c2nnc(N)o2)c1[N+](=O)[O-] :: 1.75
2. COC(=O)C1CSCN1 (stereo not drawn) :: -61.4
3. Cc1[nH]n(C(N)=S)c(=O)c1N=Nc1c(Cl)cccc1Cl :: -37.4
4. Nc1ccccc1N/N=C/c1ccccc1 :: -37.5
5. CC=C1C(C(=O)O)C1C(=O)O (stereo not drawn) :: -23.2
6. O=C(CCC1CCCCC1)OC1CCCC1 :: -5.1
7. CCOC(=O)C1=C(C)NC(C)=C(C(=O)OCC)C1 :: -41.1
8. C[N+]1(C)CCC(C(=O)c2ccccc2)CC1 :: -17.9

Reported growth inhibition ( C=CCCC12CCCC(=O)C1Sc1ccc3ccccc3c12 (stereo not drawn) ) = 10.8

Reported growth inhibition ( CN(C)/N=C1/CCCCC1C(O)(c1ccccc1)c1ccccc1 (stereo not drawn) ) = -73.3

Reported growth inhibition ( "Nc1ccc(F)c([N+](=O)[O-])c1" ) = -23.6

====

growth inhibition: recorded values
# test-details: NCI Yeast Anticancer Drug Screen. Data for the rad50 strain (AID 155);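 note: 0% = growth of vehicle-only cultures of the same strain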
# experimental-parameters: S. cerevisiae rad50 strain growth inhibition; at 50.0 µM; hits give high values
Compounds without any hit were thinned out: in the full panel of roughly 79,000, 15% have a hit.
Give just the numeric value; % need not be written.

Reported growth inhibition ( "O=C(O)c1cc2ccc(Cl)cc2c2cc(C(F)(F)F)ccc12" ) = 2.25

Reported growth inhibition ( Nc1ccccc1SC(CC(=O)c1ccccc1)c1cccc([N+](=O)[O-])c1 (configuration not stated) ) = -31.1

Reported growth inhibition ( "Cc1cc([N+](=O)[O-])ccn1" ) = -15.2

Reported growth inhibition ( "CCOC(=O)[n+]1c(C)ccc2ccccc21" ) = -20

Reported growth inhibition ( "Cc1cccc(Cl)c1N" ) = -5.55

Reported growth inhibition ( "CCOc1ccccc1NC(=O)Nc1cccc(C(F)(F)F)c1" ) = 68.8

Reported growth inhibition ( "CCOc1ccc(-c2oc(/C=N/NS(=O)(=O)c3ccc(C)cc3)c([N+](=O)[O-])c2-c2ccc(OCC)cc2)cc1" ) = 59.7

Reported growth inhibition ( "C[Si](C)(OCCS(=O)(=O)O)C1(Cc2cccc3ccccc23)S(=O)(=O)OCCOS1(=O)=O" ) = 13.6

Reported growth inhibition ( "CC(C)(C)C1=CC(=O)C(C(C)(C)C)=CC1=O" ) = -2.35

Reported growth inhibition ( "CS/C(=C\c1ccc2ccccc2[n+]1C)N1CCN(CCCO)CC1" ) = 23.4

====

growth inhibition: recorded values
# test-details: NCI Yeast Anticancer Drug Screen. Data for the mlh1 rad18 strain (AID 175)
# experimental-parameters: S. cerevisiae mlh1 rad18 strain growth inhibition; at 50.0 µM; hits give high values
# Protocol: Growth inhibition of yeast strains with defined genetic alterations is measured as a screen for potential anti-cancer activity. Selected strains with alterations in DNA damage repair or cell cycle control were exposed to compounds and growth inhibition was measured relative to vehicle treated controls. The strain used in this assay is mlh1 rad18
About 79,000 compounds went through this panel and 15% of them were active in at least one assay; those are over-represented in the sample as a whole. Activity calls are given as the source filed them. Cut-off read from the data, not from the text of the source: active = growth inhibition above about 70%; inactive = the rest.

Would you please look over these solved cases?
1) C=CCNC(=O)CCCCCCCC1C(CCCCCCCC)C2(Cl)C(Cl)=C(Cl)C1(Cl)C2(Cl)Cl (stereo not drawn) :: 17.8% (inactive)
2) COc1ccc(C(=O)c2ccc(C(=O)O)cc2)c(OC)c1 :: -27.6% (inactive)
3) CCOC(=O)/C(C#N)=C/c1cc(Br)c(O)c(OC)c1 :: 10.8% (inactive)

Reported growth inhibition ( "COC(=O)c1ccccc1NC(=O)Nc1ccccc1" ) = 8.35% (inactive)
